Where these numbers come from: patent US20210087281A1

Target or system: native human MET on living cells (human, UniProt P08581 25-1390)
Sequence (P08581 25-1390): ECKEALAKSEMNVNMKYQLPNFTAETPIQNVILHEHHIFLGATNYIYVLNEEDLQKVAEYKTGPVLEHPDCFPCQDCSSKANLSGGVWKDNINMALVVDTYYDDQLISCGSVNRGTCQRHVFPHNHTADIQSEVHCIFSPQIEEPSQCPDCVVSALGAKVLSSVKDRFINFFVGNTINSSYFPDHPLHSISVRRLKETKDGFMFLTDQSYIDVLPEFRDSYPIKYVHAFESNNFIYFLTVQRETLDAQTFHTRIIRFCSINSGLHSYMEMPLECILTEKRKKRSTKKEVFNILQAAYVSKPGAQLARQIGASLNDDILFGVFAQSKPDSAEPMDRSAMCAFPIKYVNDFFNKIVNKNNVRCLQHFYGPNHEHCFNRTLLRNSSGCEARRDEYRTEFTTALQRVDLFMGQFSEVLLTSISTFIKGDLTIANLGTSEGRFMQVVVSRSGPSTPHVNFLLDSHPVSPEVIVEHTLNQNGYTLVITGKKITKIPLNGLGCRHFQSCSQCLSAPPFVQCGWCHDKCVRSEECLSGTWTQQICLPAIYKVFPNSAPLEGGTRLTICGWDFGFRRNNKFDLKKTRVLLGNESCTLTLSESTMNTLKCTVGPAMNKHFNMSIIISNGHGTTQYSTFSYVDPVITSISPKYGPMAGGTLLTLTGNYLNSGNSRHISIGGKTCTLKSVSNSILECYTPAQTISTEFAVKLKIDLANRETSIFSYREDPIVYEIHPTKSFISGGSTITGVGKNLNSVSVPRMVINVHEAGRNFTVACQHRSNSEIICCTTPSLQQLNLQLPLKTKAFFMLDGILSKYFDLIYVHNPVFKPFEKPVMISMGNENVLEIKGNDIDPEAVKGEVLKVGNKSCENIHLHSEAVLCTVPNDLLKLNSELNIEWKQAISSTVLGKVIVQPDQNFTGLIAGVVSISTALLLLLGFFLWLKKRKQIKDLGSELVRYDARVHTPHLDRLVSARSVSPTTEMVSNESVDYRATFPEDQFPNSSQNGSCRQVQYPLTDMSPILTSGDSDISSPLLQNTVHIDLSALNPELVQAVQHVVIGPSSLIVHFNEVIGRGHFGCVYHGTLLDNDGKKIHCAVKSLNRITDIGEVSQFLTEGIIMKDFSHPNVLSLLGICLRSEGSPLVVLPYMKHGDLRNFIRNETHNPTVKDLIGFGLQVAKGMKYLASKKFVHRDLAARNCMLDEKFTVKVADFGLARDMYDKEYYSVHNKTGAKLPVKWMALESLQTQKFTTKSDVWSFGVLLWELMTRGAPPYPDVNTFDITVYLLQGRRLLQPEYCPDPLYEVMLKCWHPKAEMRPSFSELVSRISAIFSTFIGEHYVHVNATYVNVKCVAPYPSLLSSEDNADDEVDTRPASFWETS
Test name: cell-based or functional assay
Hi there, I'd appreciate the recorded scatter score 0-4, HPAF-II, 9.000 nM for every entry that follows.
Write the numeric value and follow it with the unit.

// below: answered binders
Binder: 71G2 chimeric llama-human IgG1 mAb (antibody, V domains shown, llama VH on human IgG1 CH1-CH2-CH3, llama VL on human lambda CL) VH: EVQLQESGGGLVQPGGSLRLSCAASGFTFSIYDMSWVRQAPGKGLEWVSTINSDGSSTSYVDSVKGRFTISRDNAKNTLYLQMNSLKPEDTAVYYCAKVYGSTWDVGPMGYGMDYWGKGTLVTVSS VL: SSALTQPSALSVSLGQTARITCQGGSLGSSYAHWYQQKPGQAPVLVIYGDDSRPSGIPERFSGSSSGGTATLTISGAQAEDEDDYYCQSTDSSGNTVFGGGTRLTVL
scatter score 0-4, HPAF-II, 9.000 nM: 4 score
//
Binder: 71D6 chimeric llama-human IgG1 mAb (antibody, V domains shown, llama VH on human IgG1 CH1-CH2-CH3, llama VL on human lambda CL) VH: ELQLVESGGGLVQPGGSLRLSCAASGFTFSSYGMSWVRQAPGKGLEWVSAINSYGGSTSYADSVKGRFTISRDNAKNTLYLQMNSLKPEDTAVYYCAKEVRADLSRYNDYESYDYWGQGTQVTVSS VL: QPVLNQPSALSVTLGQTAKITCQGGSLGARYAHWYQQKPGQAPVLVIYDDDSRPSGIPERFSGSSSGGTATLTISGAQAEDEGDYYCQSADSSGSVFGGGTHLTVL
scatter score 0-4, HPAF-II, 9.000 nM: 4 score

Could you now consider this next binder?
Q: scatter score 0-4, HPAF-II, 9.000 nM for 76H10 chimeric llama-human IgG1 mAb (antibody, V domains shown, llama VH on human IgG1 CH1-CH2-CH3, llama VL on human lambda CL) VH: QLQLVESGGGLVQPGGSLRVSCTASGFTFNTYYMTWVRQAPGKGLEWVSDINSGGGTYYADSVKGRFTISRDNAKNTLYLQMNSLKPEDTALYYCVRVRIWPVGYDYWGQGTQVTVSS VL: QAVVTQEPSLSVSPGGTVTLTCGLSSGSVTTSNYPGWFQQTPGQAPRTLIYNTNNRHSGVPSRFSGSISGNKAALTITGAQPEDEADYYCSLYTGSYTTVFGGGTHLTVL ?
Ans: 3 score
